Biological target: nsP13 helicase (SARS-CoV-2, UniProt P0DTD1 5325-5925)
Test: competition, 500 nM ssDNA-F, 30 nM nsP13; 3 mM ATPgS, 5 mM Mg2+; K1/2 of TrapDNA
Conditions: protein: recombinant; chain copies: 2; single strand 25 nt
PROPERTY MEASURED: IC50 (µM)
Give just the numeric value; µM need not be written.

Problem: Assign IC50 to the following record: TCTAATGTAGTATAGTAATCCGCTC (ssDNA) [TrapDNA]
Solution: 3.1
